Entries and their measured inhibition at 10 µM follow.
molecular target: rat PTP1 (Rattus norvegicus, UniProt P20417); construct: a C-terminal truncation of rat PTP1 (amino acid residues 1-322); GST (N, cleaved yes); made in house; host or cells: E. coli strain TG-1 (pGEX-2T); test: PTP1 assay, pNPP hydrolysis (rate of change in A405); assay type: biochemical; settings: Conc 10 uM; pNPP hydrolysis; Table 1; read-out: PTP1 Inhib % Inhib
Sequence (P20417 1-322): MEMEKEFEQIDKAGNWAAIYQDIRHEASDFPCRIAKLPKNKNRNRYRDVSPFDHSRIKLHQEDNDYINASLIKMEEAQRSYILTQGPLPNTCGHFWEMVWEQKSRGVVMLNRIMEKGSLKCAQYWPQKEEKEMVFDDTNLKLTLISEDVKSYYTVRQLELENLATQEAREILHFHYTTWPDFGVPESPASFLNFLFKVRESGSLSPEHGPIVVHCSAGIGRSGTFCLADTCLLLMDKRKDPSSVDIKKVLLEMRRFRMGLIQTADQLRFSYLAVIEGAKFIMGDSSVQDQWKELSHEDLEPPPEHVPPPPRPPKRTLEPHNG
// units = %; emit number, no label

These solved cases illustrate the format of a correct answer.
molecule: CCOC(CNC(=O)[C@H](Cc1ccc(OC(C(=O)O)C(=O)O)cc1)NC(=O)CCC(=O)O)OCC
display-unit: %
measured-result: 7
//
molecule: O=C(O)CCC(=O)NC(Cc1ccc(OC(COO)COO)cc1)C(=O)NCc1cccc2ccccc12 (stereo not shown)
display-unit: %
measured-result: 18
//
molecule: CCCCCNC(=O)C(Cc1ccc(OC(COO)COO)cc1)NC(=O)CCC(=O)OCc1ccccc1 (stereo not shown)
display-unit: %
measured-result: 9
//
molecule: CCCCCNC(=O)[C@H](Cc1ccc(OC(C(=O)O)C(=O)O)cc1)NC(=O)CC(=O)O
display-unit: %
measured-result: 20
//
molecule: O=C(O)CCC(=O)NC(Cc1ccc(OC(COO)COO)cc1)C(=O)NCc1ccc2c(c1)OCO2 (stereo not shown)
display-unit: %
measured-result: 24

Please fill in: inhibition at 10 µM reported for CCCCCNC(=O)C(Cc1ccc(OC(CCOO)COO)cc1)NC(=O)CCC(=O)O (stereo not shown) = 1

// recorded inhibition at 10 µM for CCCCCNC(=O)[C@H](Cc1ccc(OC(C(=O)O)C(=O)O)cc1)NC(=O)C1CCCCC1C(=O)O (stereo partly shown) : 13
